The origin of these recorded values is patent US20250353873A1.

System: human APOE RNA
Test: Dose-dependent inhibition of human APOE RNA in HepG2 cells, electroporation, 24 hours (Example 6)
Type: cell-based
Settings: 512 nM
Strand notation (5' to 3'): a small letter for the sugar, then the base; units joined by * are phosphorothioate-linked, units joined directly phosphodiester-linked; [ ] holds rarer units or linkages, { } end groups; capitals alone tell only the bases. [ms] = mesyl phosphoramidate linkage; e = 2'-O-(2-methoxyethyl) (MOE); k = constrained ethyl (cEt); [5mC] = 5-methylcytosine; d = 2'-deoxy (DNA)
Property measured: APOE RNA (% UTC)
Provide only the numeric value, understood in % UTC.

The substance 1736517 (e[5mC]*eTeTeG*kG*kT*dG[ms]dA[ms]dA[ms]dT*d[5mC]*dT*dT*dT*dA[ms]dT*eT*eA*eA*eA; antisense) [Compound 1736517] , tested on human APOE RNA, showed APOE RNA (% UTC) of 42

The substance 1736528 (e[5mC]*eT*eT*eG*eG*eTdG[ms]dA[ms]dA[ms]dT*d[5mC]*dT*dT*dT*dA[ms]dT*kT*eA*eA*eA; antisense) [Compound 1736528] , tested on human APOE RNA, showed APOE RNA (% UTC) of 62

The substance 1736521: 6-10-4 MOE gapmer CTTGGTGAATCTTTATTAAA, linkages sosssszzzsssssssoss (e[5mC]*eTeT*eG*eG*eT*dG[ms]dA[ms]dA[ms]dT*d[5mC]*dT*dT*dT*dA*dT*eTeA*eA*eA) [compound 1736521] , tested on human APOE RNA, showed APOE RNA (% UTC) of 40

The substance 1736514 (e[5mC]*eTeT*eG*kG*kT*dG[ms]dA[ms]dA[ms]dT*d[5mC]*dT*dT*dT*dA[ms]dT*eT*eA*eA*eA; antisense) [Compound 1736514] , tested on human APOE RNA, showed APOE RNA (% UTC) of 46

The substance 1736518: 6-10-4 MOE gapmer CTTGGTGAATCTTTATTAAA, linkages soossszzzssssssssss (e[5mC]*eTeTeG*eG*eT*dG[ms]dA[ms]dA[ms]dT*d[5mC]*dT*dT*dT*dA*dT*eT*eA*eA*eA) [compound 1736518] , tested on human APOE RNA, showed APOE RNA (% UTC) of 44
